Field: CC50. Provide a value for each of the compounds that follow.
System: HeLa
assayOverview: Concentration of compound that decreased the percentage of formazan production in treated HRV-14 virus infected cells to that produced in uninfected cells
Type: functional
settings: Homo sapiens

Query: Item `CC(C)C[C@H](NC(=O)OCc1ccccc1)C(=O)N[C@@H](Cc1ccccc1)C(=O)N[C@H](/C=C/C(=O)n1cccc1)CCC(N)=O` : provide CC50
Result: 6.3 µM

Query: Look up CC50 of `CC(C)C[C@H](NC(=O)OCc1ccccc1)C(=O)N[C@@H](Cc1ccccc1)C(=O)N[C@H](/C=C/C(=O)O)CCC(N)=O` and report it.
Result: > 320 µM

Query: Tell me its CC50 given `CC(C)C[C@H](NC(=O)OCc1ccccc1)C(=O)N[C@@H](Cc1ccccc1)C(=O)N[C@H](/C=C/C(=O)NC1CCCC1)CCC(N)=O` as the entry.
Result: > 320 µM

Query: Look up and report measured CC50 for this entry: `CC(C)C[C@H](NC(=O)OCc1ccccc1)C(=O)N[C@@H](Cc1ccccc1)C(=O)N[C@H](/C=C/C(=O)N1CCc2cc(Br)ccc21)CCC(N)=O`
Result: > 320 µM

Query: Give CC50 for the following compound: `CC(C)C[C@H](NC(=O)OCc1ccccc1)C(=O)N[C@@H](Cc1ccccc1)C(=O)N[C@H](/C=C/C(=O)N(C)c1ccccc1)CCC(N)=O`
Result: > 320 µM

Query: Note down CC50 recorded for `CC(C)C[C@H](NC(=O)OCc1ccccc1)C(=O)N[C@@H](Cc1ccccc1)C(=O)N[C@H](/C=C/C(=O)N1CCc2cccc(Cl)c21)CCC(N)=O`
Result: > 320 µM

Query: Note CC50 for the compound shown: `COc1ccc2c(c1)CCN2C(=O)/C=C/[C@H](CCC(N)=O)NC(=O)[C@H](Cc1ccccc1)NC(=O)[C@H](CC(C)C)NC(=O)OCc1ccccc1`
Result: > 320 µM

Query: State its CC50: `CC(C)C[C@H](NC(=O)OCc1ccccc1)C(=O)N[C@@H](Cc1ccccc1)C(=O)N[C@H](/C=C/S(=O)(=O)c1ccccc1)CCC(N)=O`
Result: > 320 µM

Query: Could you please provide reported CC50 for `CCOP(=O)(/C=C/[C@H](CCC(N)=O)NC(=O)[C@H](Cc1ccccc1)NC(=O)[C@H](CC(C)C)NC(=O)OCc1ccccc1)OCC` ? Thanks!
Result: > 320 µM

Query: Specify measured CC50 for `CC(C)C[C@H](NC(=O)OCc1ccccc1)C(=O)N[C@@H](Cc1ccccc1)C(=O)N[C@H](/C=C/C(=O)N1CCCCO1)CCC(N)=O` .
Result: 100 µM

Query: Fill in CC50 for record `CC(C)C[C@H](NC(=O)OCc1ccccc1)C(=O)N[C@@H](Cc1ccccc1)C(=O)N[C@H](/C=C/C#N)CCC(N)=O`
Result: > 320 µM

---

Task for the reader: assign each of the following molecules its reported EC50.
System: HeLa
assayOverview: Formazan production in HRV-14 virus infected cells
Format: functional, cell-based
settings: Homo sapiens

Query: Dear colleague, please send me the reported EC50 for `CO/N=C/C=C/[C@H](CCC(N)=O)NC(=O)[C@H](Cc1ccccc1)NC(=O)[C@H](CC(C)C)NC(=O)OCc1ccccc1` when you can.
Result: 100 µM

Query: Assign EC50 to the following record: `CC(C)C[C@H](NC(=O)OCc1ccccc1)C(=O)N[C@@H](Cc1ccccc1)C(=O)N[C@H](/C=C/C(=O)OCC(C)(C)C)CCC(N)=O`
Result: 0.5 µM

Query: Dear colleague, please send me the reported EC50 for `CC(C)C[C@H](NC(=O)OCc1ccccc1)C(=O)N[C@@H](Cc1ccccc1)C(=O)N[C@H](/C=C/C(=O)N1CCc2cccc(S(C)(=O)=O)c21)CCC(N)=O` when you can.
Result: > 320 µM

Query: Given `CC(C)C[C@H](NC(=O)OCc1ccccc1)C(=O)N[C@@H](Cc1ccccc1)C(=O)N[C@H](/C=C/C(=O)N1CCc2ccc(S(C)(=O)=O)cc21)CCC(N)=O` , respond with its EC50.
Result: > 320 µM

Query: Look up EC50 of `CC(C)C[C@H](NC(=O)OCc1ccccc1)C(=O)N[C@@H](Cc1ccccc1)C(=O)N[C@H](/C=C/S(C)(=O)=O)CCC(N)=O` and report it.
Result: > 320 µM

Query: Consider the molecule `CC(C)C[C@H](NC(=O)OCc1ccccc1)C(=O)N[C@@H](Cc1ccccc1)C(=O)N[C@H](/C=C/C(=O)N1CCc2ccc(S(=O)(=O)N(C)C)cc21)CCC(N)=O` . State its measured EC50.
Result: > 100 µM

---

Exercise: state measured half-life for each of the compounds provided.
assayOverview: Half-life in rat plasma
Type: ADME, organism-based
Field format: number, assumed min, no unit text.

Query: Identify measured half-life corresponding to `CCOC(=O)/C=C/[C@H](CCC(N)=O)NC(=O)[C@H](Cc1ccccc1)NC(=O)[C@H](CC(C)C)NC(=O)OCc1ccccc1`
Result: 10

Query: Identify the reported half-life for the following entry. `CC(C)C[C@H](NC(=O)OCc1ccccc1)C(=O)N[C@@H](Cc1ccccc1)C(=O)N[C@H](/C=C/C(=O)OC1CCCCC1)CCC(N)=O`
Result: 4

Query: Note down half-life recorded for `CON(C)C(=O)/C=C/[C@H](CCC(N)=O)NC(=O)[C@H](Cc1ccccc1)NC(=O)[C@H](CC(C)C)NC(=O)OCc1ccccc1`
Result: 12

Query: Name the recorded half-life of the compound listed here: `CCOC(=O)/C(C)=C/[C@H](CCC(N)=O)NC(=O)[C@H](Cc1ccccc1)NC(=O)[C@H](CC(C)C)NC(=O)OCc1ccccc1`
Result: 20

---

Tested on: HeLa
assayOverview: Formazan production in HRV-14 virus infected cells
Type: functional, cell-based
settings: Homo sapiens
valueKind: pEC50
Reminder that pEC50 means the negative base-10 logarithm of the concentration expressed in mol/L.

Query: Report pEC50, nothing else, for this compound: `CCOC(=O)/C(C)=C/[C@H](CCC(N)=O)NC(=O)[C@H](Cc1ccccc1)NC(=O)[C@H](CC(C)C)NC(=O)OCc1ccccc1`
Result: 5.52

Query: Identify the reported pEC50 for the following entry. `CCOC(=O)/C=C/[C@H](CCC(N)=O)NC(=O)[C@H](Cc1ccccc1)NC(=O)[C@H](CC(C)C)NC(=O)OCc1ccccc1`
Result: 6.27

Query: Give me measured pEC50, please, for this compound: `CC(C)C[C@H](NC(=O)OCc1ccccc1)C(=O)N[C@@H](Cc1ccccc1)C(=O)N[C@H](/C=C/C(=O)N1CCc2cc([N+](=O)[O-])ccc21)CCC(N)=O`
Result: 4.77

Query: Determine from records and report pEC50 for `CC(C)C[C@H](NC(=O)OCc1ccccc1)C(=O)N[C@@H](Cc1ccccc1)C(=O)N[C@H](/C=C/C(=O)c1ccccc1)CCC(N)=O`
Result: 5.40

---

Tested on: HeLa
assayOverview: Formazan production in HRV-14 virus infected cells
Type: functional, cell-based
settings: Homo sapiens
valueKind: pEC50
Remember the convention: pEC50 equals -log10 of concentration in molar.

Query: Find pEC50 for `CC(=O)/C=C/[C@H](CCC(N)=O)NC(=O)[C@H](Cc1ccccc1)NC(=O)[C@H](CC(C)C)NC(=O)OCc1ccccc1` on HeLa and write it down.
Result: 5.70

Query: # assay system HeLa: give pEC50 of `CC(C)C[C@H](NC(=O)OCc1ccccc1)C(=O)N[C@@H](Cc1ccccc1)C(=O)N[C@H](/C=C/C(=O)c1ccc([N+](=O)[O-])cc1)CCC(N)=O`
Result: 4.49

Query: Report pEC50 from HeLa testing of `CC(C)C[C@H](NC(=O)OCc1ccccc1)C(=O)N[C@@H](Cc1ccccc1)C(=O)N[C@H](/C=C/C(=O)N1CCc2cc(F)ccc21)CCC(N)=O`
Result: 4.96

Query: Quote pEC50 with test system HeLa for `CC(C)C[C@H](NC(=O)OCc1ccccc1)C(=O)N[C@@H](Cc1ccccc1)C(=O)N[C@H](/C=C1\CCCOC1=O)CCC(N)=O`
Result: 4.80

Query: Please look at `CC(C)C[C@H](NC(=O)OCc1ccccc1)C(=O)N[C@@H](Cc1ccccc1)C(=O)N[C@H](/C=C/C(=O)N1CCOC1=O)CCC(N)=O` and tell me its recorded pEC50 on HeLa.
Result: 5.80

---

Answer each item with its documented EC50.
Tested on: HeLa
assayOverview: Formazan production in HRV-14 virus infected cells
Assay type: functional, cell-based
settings: Homo sapiens
Please respond with the number in µM and leave the unit unwritten.

Query: Check the records and state EC50 for `CC(C)C[C@H](NC(=O)OCc1ccccc1)C(=O)N[C@@H](Cc1ccccc1)C(=O)N[C@H](/C=C/C(=O)N(C)C)CCC(N)=O`
Result: 56

Query: Give the reported EC50 for this molecule. `CC(C)C[C@H](NC(=O)OCc1ccccc1)C(=O)N[C@@H](Cc1ccccc1)C(=O)N[C@H](/C=C/C(=O)N1CCCC1)CCC(N)=O`
Result: 22

Query: Check the records and state EC50 for `CC(C)C[C@H](NC(=O)OCc1ccccc1)C(=O)N[C@@H](Cc1ccccc1)C(=O)N[C@H](/C=C/C(=O)N1CCCO1)CCC(N)=O`
Result: 45

Query: Given `CC(C)C[C@H](NC(=O)OCc1ccccc1)C(=O)N[C@@H](Cc1ccccc1)C(=O)N[C@H](/C=C/C(=O)OC1CCCCC1)CCC(N)=O` , respond with its EC50.
Result: 3.6

Query: Report EC50 for `CC(C)C[C@H](NC(=O)OCc1ccccc1)C(=O)N[C@@H](Cc1ccccc1)C(=O)N[C@H](/C=C/C(=O)N1CCCc2ccccc21)CCC(N)=O`
Result: 126

Query: Please look at this molecule and report its EC50: `CC(C)C[C@H](NC(=O)OCc1ccccc1)C(=O)N[C@@H](Cc1ccccc1)C(=O)N[C@H](/C=C/C(=O)N1CCc2ccccc21)CCC(N)=O`
Result: 16
